- Tested on: IL-2-FL/Gaussia Luciferase
- Assay notes: Dox Induced IL2-FL-Gluc Assay
- Format: cell-based
- Experimental setup: ratio of IL2FLGluc IC50 to PD1ssGluc IC50
Outcome measure: 24 hr Dox Inducible IL2FLGluc 293FRT/TO: IL2/PD1
API note: the answer field is a bare number with no unit suffix.

These recorded examples may help you get a feel for the data.
compound="CC(=O)N1CCC(Oc2ccc(N3CCC[C@@H]3c3csc(NC(=O)c4cccn4Cc4ccnc(F)c4)n3)c(C#N)c2)CC1 [Compound A133]" result=1.3
compound="CC(C)OC(=O)Nc1ccc(N2CCC[C@@H]2c2csc(NC(=O)c3cccn3Cc3ccnc(F)c3)n2)cc1 [Compound A146]" result=2.6
compound="O=C(Nc1nc(/C=C/c2coc(C3CC3)n2)cs1)c1cccn1Cc1ccncc1 [Compound B40]" result=21

With those in mind, consider the next compound.
Input: Would you kindly share the measured 24 hr Dox Inducible IL2FLGluc 293FRT/TO: IL2/PD1 for O=C(Nc1nc([C@H]2CCCN2c2ccc(O[C@@H]3CCOC3)cc2)cs1)c1cccn1Cc1ccncc1 [Compound A3] ?
Output: 1.7

Data credit: patent US20230286973A1
